B1: Azoarcus group I ribozyme (parent)
chain: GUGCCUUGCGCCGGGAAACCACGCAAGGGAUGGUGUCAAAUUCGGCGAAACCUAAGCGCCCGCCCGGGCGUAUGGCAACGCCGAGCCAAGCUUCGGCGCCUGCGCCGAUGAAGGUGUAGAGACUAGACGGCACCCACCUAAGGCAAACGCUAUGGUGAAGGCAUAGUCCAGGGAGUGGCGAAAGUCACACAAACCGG

Variants of: B1
protocol: reverse-splicing fitness (ratio to wild type); higher = more active; in vitro selection; Mg2+ level not given
quantity-measured: reverse-splicing fitness
Lab note: jot down the number only; don't add units.

{"alteration": "C82A A111C A120C A145U C150U C169G", "value-measured": 0.00764}

Enquiry: For C82U A111C A120G A145C C150A U176C , what is its reported reverse-splicing fitness?
Return: 0.00967

Enquiry: What measured reverse-splicing fitness goes with C82A A145C C150G C169A U176G ?
Return: 0.00669

Enquiry: For C82G C150U C169A , what is its reported reverse-splicing fitness?
Return: 0.0106

Enquiry: Fill in: reverse-splicing fitness of A120G A145C C150A C169A U176G is ___
Return: 0.00472

Enquiry: Which reverse-splicing fitness is listed for C82A A120G A145C C169A U176A ?
Return: 0.00955

Enquiry: reverse-splicing fitness lookup needed for C82G A111U A120C A145U C150G C169G , thanks.
Return: 0.00772

Enquiry: # query: reverse-splicing fitness of entry C82U A111U A120C A145C C150G C169U U176C
Return: 0.0116

Enquiry: reverse-splicing fitness for A120C A145C C150U C169A U176G ?
Return: 0.00465

Enquiry: Form field: reported reverse-splicing fitness of A111C A120G A145U C150G U176G
Return: 0.00305

Enquiry: # query: reverse-splicing fitness of entry C82G A120G A145C C150A
Return: 0.00852

Enquiry: Could you tell me which reverse-splicing fitness is on file for C82U A111C A120C A145C C150G U176C ?
Return: 0.00717

Enquiry: Which value of reverse-splicing fitness has been reported for C82A A111G A120C A145C C150A in the records?
Return: 0.00953

Enquiry: Can you share its reverse-splicing fitness? I mean this variant: C82A A111G A120C A145C C150A C169A U176G
Return: 0.00558

Enquiry: Quick check: reverse-splicing fitness of C82A A111U A120C A145G C150G C169A U176C ?
Return: 0.016

Enquiry: reverse-splicing fitness for C82A A111C A120U U176G ?
Return: 0.00382

Enquiry: Please report the recorded reverse-splicing fitness for C82U A111G A120U A145U C169A U176G .
Return: 0.00175

Enquiry: Given the variant C82U A111U A145G C150A U176G , what is its reported reverse-splicing fitness?
Return: 0.00953

Enquiry: Please report the recorded reverse-splicing fitness for C82G A120C A145U C169G U176C .
Return: 0.0138

Ref: the RNAGym collection of RNA variant scans (doi:10.1093/molbev/msab373)
